assay: soluble on expression in E. coli; label from the status in PepcDB or PDB records
ENDPOINT NAME: soluble on expression in E. coli

- SEQUENCE CODE: "MALELSDIRQQITQIDRSLLKLLSERHRLAFDVVRSKEISQKSLRDVEREQQLLQELVQFAENENYQLEAQYITSIFQKIIEDSVLTQQVYLQNKLNEQRNQNLHIAFLGKRGSYSNLAARNYAARYQKQFVELGCQSFEQVFEKVQTGEADFGVLPLENTTSGAINEVYDLLQHTDLSLVGELAYPIKHCVLVNDKTDLNQIDTLYSHPQVIQQCSQFIHSLDRVHIEYCESSSHAMQLVASLNKPNIAALGNEDGGKLYGLSVLKTNIANQENNITRFIVVAKEPREVSSQIPTKTLLLMTTSQQAGALVDALLVFKKHQINMTKLESRPIYGKPWEEMFYLEIEANIHHPDTKQALEELKNYSNYLKILGCYPSEIVKPVSV"
  soluble on expression in E. coli: "not soluble"
- SEQUENCE CODE: "MGHHHHHHSHMENKMESIEQQVEVLLEQEPQLLPAAMAERLGVTEFDVVAALPQEMVAISPGEQAQTILESLVGFGPVTTIVHSFGSIFEVKAPFPKGKVARGYYNLMGREGELHGHLKLDNVKNIALVSKPFMGRESHYFGFFSECGSNIFKVYLGRDEKRELIAEQVTAFRAMQAELNQ"
  soluble on expression in E. coli: "soluble"
- SEQUENCE CODE: "MHGEETPRTDLTLFSEKMQELKSRIASVIVGQERTVDLVLTAILANGHVLIEGVPGVAKTLLARLTARLIDADFSRVQFTPDLMPSDVLGTTVFNMKTNEFDFHRGPVFANIILVDEINRAPAKTQSALFEVMEERQASIDGTTYRMGELYTILATQNPVEQEGTYKLPEAQLDRFLMKITMDYPSLDEEINILERHHTNAALVKLEEIQPVITREELLSLRRLTEKVFVDRTLLQYIALIAQQTRTSKAVYLGASPRASVAMLQASKAYALLQGRDFVTPEDIKFVAPYVLQHRLILTAEAEMEGYSPVKVTQRLIDKVEVPKLEHHHHHH"
  soluble on expression in E. coli: "soluble"
- SEQUENCE CODE: "SQAPHKEHLYKLLVIGDLGVGKTSIIKRYVHQNFSSHYRATIGVDFALKVLHWDPETVVRLQLWDIAGQERFGNMTRVYYREAMGAFIVFDVTRPATFEAVAKWKNDLDSKLSLPNGKPVSVVLLANKCDQGKDVLMNNGLKMDQFCKEHGFVGWFETSAKENINIDEASRCLVKHILANECDLMESIEPDVVKPHLTSTKVASCSGCAKS"
  soluble on expression in E. coli: "soluble"
- SEQUENCE CODE: "GSGSAMIEARQVSELSTRIISSVQMLSNAQNEQERKEAGRVLFEQLESLLTHIKELGGESFDSKLLDALESNVQNVINNLAELGVTVERKLWLAKEIDTRVEEMRLLSEELEQLTRTQVQNTSTIAVANVTHIYDLLEANKKDQVYQALDALVEVDLDLTERLHELHLLAFKMLNQIEEARTLTNVDRIQQIQTAFENNLKIMKRRVLAVEDPTRSKQMSQLLTELGKRQVVFTILLQQYENNEQSQQLMQKTLELFSELNSTVNKLVDDSNKTTT"
  soluble on expression in E. coli: "soluble"

Please look at the items below and tell me soluble on expression in E. coli for each one, in order.
1. MGSDKIHHHHHHMRAKELQDWFPEARISDQPVEKEGYLTLPLASQQWILLEEAGLSEREKQLVALLTQQEQARSLNPWYSYLVEGKGQAPQVFKKIQLVYCHLSYFQQENLASWLDMMRTLFPNCQTVLQVGAQDYVFVLQQDKYTSVRDILSDTIEAVEYDFGLRLSIMLGQVWSQTGHQALSDLIKAERDLFKTWWRQGHQGVHTFSQLYLWSMGERLVDLKPIKECLHQMILDQDQIQEIILSLWENSAVLTKTAQQLYLHRNSLQYKIDKWEELTGLQLKELTDLTLCYQLILGSLSTIVGL
2. MKLESPLGSDLARLVRIWRALIDHRLKPLELTQTHWVTLHNIHQLPPDQSQIQLAKAIGIEQPSLVRTLDQLEEKGLISRQTCASDRRAKRIKLTEKAEPLISEMEAVINKTRAEILHGISAEELEQLITLIAKLEHNIIELQAKG
3. MGSDKIHHHHHHMDRIGIDTWANISAEGWSSLLLGNGASIAIHKEFAYPTLHGIADAKGLLATTAPIFAKLGTTDFEHVLLACWYAEHVNGALGTPSAAISAAYEEVRTALIEAVHSVHPVHADVAADLQRVGAFASAFPTVVSLNYDITLYWAMLLFNAANGSWFKDAFHDGEFQTDWEYLRRPYGHAAGATLVFYPHGSLAVARDYLGDETKLSVGAGAAGDLLGTITRRWASGHYVPVFVSEGTSHQKVAAIRRSHYLTNVYEEVLPALGESLVVYGWSFDERDQHVLAAIAANPPKRMAVSVFTGQPDGDQQAFCLQVLKAVGRSLPGTEVTFFDSRSPGCWNNP
4. MDEFYISIETVGNNIVERYIDENGKERTREVEYLPTMFRHCKEESKYKDIYGKNCAPQKFPSMKDARDWMKRMEDIGLEALGMNDFKLAYISDTYGSEIVYDRKFVRVANCDIEVTGDKFPDPMKAEYEIDAITHYDSIDDRFYVFDLLNSMYGSVSKWDAKLAAKLDCEGGDEVPQEILDRVIYMPFDNERDMLMEYINLWEQKRPAIFTGWNIEGFDVPYIMNRVKMILGERSMKRFSPIGRVKSKLLQNMYGSKEIYSIDGVSILDYLDLYKKFAFTNLPSFSLESVAQHETKKGKLPYDGPINKLRETNHQRYISYNIIDVESVQAIDKIRGFIDLVLSMSYYAKMPFSGVMSPIKTWDAIIFNSLKGEHKVIPQQGSHVKQSF
5. MYPLNIDGEELYLRDLKINDLPNLLKWYNNIDDFSLATGVYKPITLKEILERYFKCQSSSKDFFAGIYIRKSGEMIGVLKGWLDCEKDLSAWINSIIIDPGFQRKGYGSKTVNLFIRHVKECCNVKRVYLSVAEENFKGMSFWKQQSFREVKKISKDRDSVSKCKSIVIMCREI
6. SNAMNLNQLDIIVSNVPQVCADLEHILDKKADYANDGFAQFTIGSHCLMLSQNHLVPLENFQSGIIIHIEVEDVDQNYKRLNELGIKVLHGPTVTDWGTESLLVQGPAGLVLDFYRMK

Output line:
not soluble
not soluble
not soluble
soluble
not soluble
soluble

====

test: soluble on expression in E. coli; label from the status in PepcDB or PDB records
ENDPOINT NAME: soluble on expression in E. coli

- SEQUENCE CODE: "MAHHHHHHMNEKGNFMKKAYKNNNIQLSENQINQRIKNVNLTKRLICYERYLKAIPKIERRNDLKNSWHPETPRYNKQISLSQWNKELKKWRKQIHAWGNISEEDHRYICKLSYTDKYKYLCNLKMPELSNLEIKNMKKENEEISHDILKHILLIQNKHNNPFDENDKIMYQPIFFLPENFSGTVVHNEFVIIKEQNMEKYLTLLKDKYKDKYNYCFKKYYELYLLNKDSDNKNVENSKNTIPKNGKNHIVIYLGKETKPLNYKNKEAQYEQKEKMEAYNFLCGSTKKYENHNKMNKRKKF"
  ENDPOINT NAME: "soluble on expression in E. coli"
  RESULT: "not soluble"
- SEQUENCE CODE: "MDAALRRLQTFLSTIPQCDHTKYEGHYQQVFYIIFSLLGYYVDVEVRTSRGRVDVVLRTEATLYVMELKLDKNATVAMEQINLKNYPERFALCGLPVVKVAVNFDSESGTLGDWMIEK"
  ENDPOINT NAME: "soluble on expression in E. coli"
  RESULT: "not soluble"

====

assay: soluble on expression in E. coli; label from the status in PepcDB or PDB records
ENDPOINT NAME: soluble on expression in E. coli

- SEQUENCE CODE: "MKKHVMLVKPFSLEDEKDSENTPPNLIQRILSLFKNVRPGSDLTNFQLPPQMNLARSQLQCYGEIVYSFDGHDLLGECSRRDKPIERMKAMVTWYISTLRPLIFGLAPYNPVIGETHHVSNGHINVLAEQISHHPPVSALHATHEKENVDVLLCQYFTPKFRGAYVDVEVKGKRVVKLLNHKETYEMNQPKLLMTFLPAMGAHWAGKIVIKCPETGLGAELQLLSDSFLSRFTGNNKRAIKGKIFESSSRKQLYEISGHWDRTVTAKNTKTGQLEVIYKASENIAKLKTPIVENLQEVSESESAVVWGEVSEGIVTNNWEKAREAKRDVEEKQRESLRKRKASGQSWIPKHFSVARTGKDWDCVPLQPTVPRAPIVVPL"
  RESULT: "soluble"
- SEQUENCE CODE: "MSLTQETALGAALKSAVQTMSKKKQTEMIADHIYGKYDVFKRFKPLALGIDQDLIAALPQYDAALIARVLANHCRRPRYLKALARGGKRFDLNNRFKGEVTPEEQAIAQNHPFVQQALQQQSAQAAAETLSVEAEAAESSAAEEGGSHHHHHH"
  RESULT: "soluble"
- SEQUENCE CODE: "MKSLPYTIALLFCGLIIVSMAAKGHSTDTDESVQKWEQLAWSKIQDEYKGASFSDYAYMGRTEVNDQQTKDVFRVTVRQKDDTFSVRAEVYFHPVTNHMISINVFRLMAGDPLEHHHHHH"
  RESULT: "soluble"
